Assay: in vitro
Assay type: in vitro ADME
Conditions: microsomes, pH 7.4; dog; 1 μM compound, 0.5 mg/mL protein; read-out: Liver Microsomal Stability t1/2
attribute_measured: log10 of half-life at 1 μM (log10 of the value in min)

query_smiles	reading
Cc1nc2ccc(Cl)nn2c1C(=O)N[C@H]1N=C(c2ccccc2)c2ccccc2NC1=O	2.25
[2H]C([2H])([2H])Oc1ccc2nc(-c3ccccc3)c(C(=O)N[C@H]3N=C(c4ccccc4)c4cccc(F)c4NC3=O)n2n1	2.52
CCNc1ccc2nc(-c3ccccc3F)c(C(=O)N[C@H]3N=C(c4ccccc4)c4cccc(F)c4NC3=O)n2n1	2.46
Cc1cnc2c(C(=O)N[C@H]3N=C(c4ccccc4)c4cccc(F)c4NC3=O)c(-c3ccccc3F)nn2c1	1.94
CC(C)Nc1ccc(-c2nn3cccnc3c2C(=O)N[C@H]2N=C(c3ccccc3)c3cccc(F)c3NC2=O)cn1	1.64
O=C(N[C@H]1N=C(c2ccccc2)c2cccc(F)c2NC1=O)c1c(-c2ccc(F)cc2F)nn2cccnc12	2.55
Cc1ccc(-c2nn3cccnc3c2C(=O)N[C@H]2N=C(c3ccccc3)c3ccccc3NC2=O)c(F)n1	2.02
CN1C[C@H]2C[C@@H]1CN2c1ccc2nc(-c3ccccc3)c(C(=O)N[C@H]3N=C(c4ccccc4)c4cccc(F)c4NC3=O)n2n1	2.05
Cc1ccn2nc(-c3ccccc3F)c(C(=O)N[C@H]3N=C(c4ccccc4)c4cccc(F)c4NC3=O)c2n1	2.96

* * *

Property: half-life at 1 μM; scope: individual molecules
Assay: in vitro
Type: in vitro ADME
Conditions: microsomes, pH 7.4; human; 1 μM compound, 0.5 mg/mL protein; read-out: Liver Microsomal Stability t1/2

query_smiles	half-life at 1 μM
Cc1ccnc2c(C(=O)N[C@H]3N=C(c4ccccc4)c4ccccc4NC3=O)c(-c3ccccc3F)nn12	> 2.33 h
COc1ccc(-c2nn3cccnc3c2C(=O)N[C@H]2N=C(c3ccccc3)c3ccccc3NC2=O)c(F)c1	> 2.33 h
O=C(N[C@H]1N=C(c2ccccc2)c2cccc(F)c2NC1=O)c1c(-c2ccccc2Cl)nn2cccnc12	> 2.33 h

* * *

Test: in vitro
Format: in vitro ADME
Details: microsomes, pH 7.4; rat; 1 μM compound, 0.5 mg/mL protein; read-out: Liver Microsomal Stability t1/2
attribute_measured: half-life at 1 μM (h)

query_smiles	operator	reading
O=C(N[C@H]1N=C(c2ccccc2)c2cccc(F)c2NC1=O)c1c(-c2ccc(F)cc2F)nn2cccnc12	>	2.33
CCNc1ccc2nc(-c3ccccc3F)c(C(=O)N[C@H]3N=C(c4ccccc4)c4cccc(F)c4NC3=O)n2n1	=	1.46
O=C(N[C@H]1N=C(c2ccccc2)c2ccccc2NC1=O)c1c(-c2ccc(F)cc2F)nc2cccnn12	=	3.37
Cc1ccn2nc(-c3ccccc3F)c(C(=O)N[C@H]3N=C(c4ccccc4)c4cccc(F)c4NC3=O)c2n1	=	0.555
O=C(N[C@H]1N=C(c2ccccc2)c2cccc(F)c2NC1=O)c1c(-c2c(F)cccc2F)nn2cccnc12	=	3.85
Cc1ccc2nc(-c3ccccc3F)c(C(=O)N[C@H]3N=C(c4ccccc4)c4cccc(F)c4NC3=O)n2n1	=	0.477
CC(C)Nc1ccc(-c2nn3cccnc3c2C(=O)N[C@H]2N=C(c3ccccc3)c3ccccc3NC2=O)c(F)n1	=	2.43
O=C(N[C@H]1N=C(c2ccccc2)c2cccc(F)c2NC1=O)c1c(-c2cnc3[nH]ccc3c2)nn2cccnc12	=	0.833
Cc1ccc2nc(-c3ccncc3F)c(C(=O)N[C@H]3N=C(c4ccccc4)c4cccc(F)c4NC3=O)n2n1	=	0.457
COc1ccc2nc(-c3cncc(C)c3)c(C(=O)N[C@H]3N=C(c4ccccc4)c4cccc(F)c4NC3=O)n2n1	=	0.808
O=C(N[C@H]1N=C(c2ccccc2)c2ccccc2NC1=O)c1c(-c2cncc(Cl)c2)nn2cccnc12	=	8.75
Cc1ccc2nc(-c3cccnc3)c(C(=O)N[C@H]3N=C(c4ccccc4)c4cccc(F)c4NC3=O)n2n1	=	0.468
Cc1ccc2nc(-c3ccccc3)c(C(=O)N[C@H]3N=C(c4ccccc4)c4cccc(F)c4NC3=O)n2n1	=	0.685
Cc1nn2cc(-c3ccoc3)cnc2c1C(=O)N[C@H]1N=C(c2ccccc2)c2cccc(F)c2NC1=O	=	0.427
CC(C)Nc1ccc(-c2nn3cccnc3c2C(=O)N[C@H]2N=C(c3ccccc3)c3cccc(F)c3NC2=O)c(F)n1	=	1.65
Cc1cnc2c(C(=O)N[C@H]3N=C(c4ccccc4)c4cccc(F)c4NC3=O)c(-c3ccccc3F)nn2c1	=	1.08
CNc1ccc(-c2nn3cccnc3c2C(=O)N[C@H]2N=C(c3ccccc3)c3ccccc3NC2=O)c(F)c1	=	0.652
O=C(N[C@H]1N=C(c2ccccc2)c2ccccc2NC1=O)c1c(-c2ccccc2F)nn2cccnc12	>	2.33
Cc1nc2ccc(Cl)nn2c1C(=O)N[C@H]1N=C(c2ccccc2)c2ccccc2NC1=O	=	1.04
O=C(N[C@H]1N=C(c2ccccc2)c2ccccc2NC1=O)c1c(-c2ccc(F)cc2F)nn2cccnc12	>	2.33
CN1CC(Oc2ccc3nc(-c4ccccc4)c(C(=O)N[C@H]4N=C(c5ccccc5)c5cccc(F)c5NC4=O)n3n2)C1	=	1.15
CNc1ccc(-c2nn3cccnc3c2C(=O)N[C@H]2N=C(c3ccccc3)c3ccccc3NC2=O)cc1	=	0.678

* * *

Property: half-life at 1 μM; scope: individual compounds
Assay: in vitro
Format: in vitro ADME
Conditions: microsomes, pH 7.4; dog; 1 μM compound, 0.5 mg/mL protein; read-out: Liver Microsomal Stability t1/2

compound	half-life at 1 μM
O=C(N[C@H]1N=C(c2ccccc2)c2cccc(F)c2NC1=O)c1c(-c2ccc(C3CC3)nc2)nn2cccnc12 [Example 30]	4.88 h
O=C(N[C@H]1N=C(c2ccccc2)c2cccc(F)c2NC1=O)c1c(-c2ccccc2Cl)nn2cccnc12 [Example 10]	6.33 h
Cc1ccc(-c2nn3cccnc3c2C(=O)N[C@H]2N=C(c3ccccc3)c3cccc(F)c3NC2=O)cn1 [Example 50]	13.3 h
CCc1ccc(-c2nn3cccnc3c2C(=O)N[C@H]2N=C(c3ccccc3)c3cccc(F)c3NC2=O)cn1 [Example 55]	1.87 h
Cc1cnc(F)c(-c2nn3cccnc3c2C(=O)N[C@H]2N=C(c3ccccc3)c3cccc(F)c3NC2=O)c1 [Example 32]	3.78 h
CNc1ccc(-c2nn3cccnc3c2C(=O)N[C@H]2N=C(c3ccccc3)c3ccccc3NC2=O)c(F)c1 [Example 16]	0.657 h
O=C(N[C@H]1N=C(c2ccccc2)c2ccccc2NC1=O)c1c(-c2ccc(F)cc2F)nc2cccnn12 [Example 88]	1.27 h
Cc1ccc2nc(-c3ccc(F)cn3)c(C(=O)N[C@H]3N=C(c4ccccc4)c4cccc(F)c4NC3=O)n2n1 [Example 78]	4.17 h

These data points were gathered from patent US11634425B2.
